assay: BSK_CASM3C_SRB: Viability Assessment in the BioMAP Diversity Plus: CASM3C Assay (AID 2283050); conditions: primary human coronary artery smooth muscle cells;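 note: total protein by SRB staining as cytotoxicity measure in parallel cultures; cells exposed to compound for 24 h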
Calls of active or inactive are those of the source. Rule for the calls: active = hit-call score of the fitted dose curve at least 0.9, where 1 is the maximum; inactive = score below 0.9.
Labels: yes (1) (active), no (0) (inactive)

[[record]]
compound = "CC(C)c1ccc(C(C)C)cc1"
group_label = "yes (1)"

[[record]]
compound = "O=C1CCCCCCCCCCCCCCO1"
group_label = "yes (1)"

[[record]]
compound = "Cc1ccc(O)c(C(C)(C)C)c1"
group_label = "yes (1)"

[[record]]
compound = "CCCCC(CC)COCCC#N (centres undefined)"
group_label = "no (0)"

[[record]]
compound = "c1ccc2c(c1)c1cccc3ccc4cccc2c4c31"
group_label = "no (0)"

[[record]]
compound = "N#Cc1ccc(CC(=NNC(=O)Nc2ccc(OC(F)(F)F)cc2)c2cccc(C(F)(F)F)c2)cc1"
group_label = "no (0)"

[[record]]
compound = "C=C[Si](OCC)(OCC)OCC"
group_label = "no (0)"

[[record]]
compound = "CC(=O)/C=C/C1=C(C)CCCC1(C)C"
group_label = "no (0)"

[[record]]
compound = "O=[N+]([O-])c1cc(C(F)(F)F)ccc1Cl"
group_label = "no (0)"

